IC50, Vps34 (Homo sapiens, UniProt Q8NEB9), per-entry values.

Exercise: Enter measured IC50, system Vps34 (Homo sapiens, UniProt Q8NEB9), for the compound shown: O=c1cc(N2CCOCC2)nc2n1CC[C@@H](C(F)(F)F)N2CC1CC1 [Example 2b]
Key: < 10 nM

Exercise: Provide measured IC50 on Vps34 (Homo sapiens, UniProt Q8NEB9) for CC(C)OCCN1c2nc(N3CCOCC3)cc(=O)n2CC[C@]1(C)C(F)(F)F [Example 11Bb] please.
Sequence (Q8NEB9 whole entry): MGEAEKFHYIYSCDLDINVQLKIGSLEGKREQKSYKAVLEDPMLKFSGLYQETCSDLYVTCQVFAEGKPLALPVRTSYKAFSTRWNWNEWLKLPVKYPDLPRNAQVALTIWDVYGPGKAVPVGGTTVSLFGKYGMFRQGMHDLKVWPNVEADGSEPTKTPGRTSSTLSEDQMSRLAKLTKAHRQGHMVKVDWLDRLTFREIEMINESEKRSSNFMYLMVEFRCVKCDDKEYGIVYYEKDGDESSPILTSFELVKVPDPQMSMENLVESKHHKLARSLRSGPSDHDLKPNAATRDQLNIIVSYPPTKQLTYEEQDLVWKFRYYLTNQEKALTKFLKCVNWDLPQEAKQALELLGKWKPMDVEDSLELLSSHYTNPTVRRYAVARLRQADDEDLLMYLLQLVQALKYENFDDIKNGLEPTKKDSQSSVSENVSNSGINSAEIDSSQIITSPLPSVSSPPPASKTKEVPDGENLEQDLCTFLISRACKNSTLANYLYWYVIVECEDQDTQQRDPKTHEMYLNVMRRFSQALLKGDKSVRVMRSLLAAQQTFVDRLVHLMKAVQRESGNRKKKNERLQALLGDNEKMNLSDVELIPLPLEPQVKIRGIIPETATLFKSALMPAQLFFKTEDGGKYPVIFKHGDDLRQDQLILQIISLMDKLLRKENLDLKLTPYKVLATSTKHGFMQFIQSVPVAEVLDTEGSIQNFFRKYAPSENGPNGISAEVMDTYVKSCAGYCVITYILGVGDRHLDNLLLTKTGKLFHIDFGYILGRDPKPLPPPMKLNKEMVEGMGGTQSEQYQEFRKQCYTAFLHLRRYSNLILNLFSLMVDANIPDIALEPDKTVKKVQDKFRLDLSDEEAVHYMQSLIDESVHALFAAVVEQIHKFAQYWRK
Key: > 100 nM

Exercise: // fetch IC50 for C[C@@]1(C(F)(F)F)Cn2c(nc(N3CCOCC3)cc2=O)N1C1CC1 [Example 2a] ; system: Vps34 (Homo sapiens, UniProt Q8NEB9)
Key: < 10 nM

Exercise: Look up and report IC50, with Vps34 (Homo sapiens, UniProt Q8NEB9) as system, for CC(C)(O)CN1c2nc(N3CCOCC3)cc(=O)n2C[C@@]1(C)C(F)(F)F [Example 5a]
Key: 10 to 100 nM

Exercise: Provide the reported IC50 (system: Vps34 (Homo sapiens, UniProt Q8NEB9)) for CC(C)OCCN1c2nc(N3CCOCC3)cc(=O)n2CCC1(C)C [Example 13b]
Key: 10 to 100 nM

Exercise: Consider the compound CC(C)OCCN1c2nc(N3CCOCC3)cc(=O)n2C[C@@]1(C)C(F)(F)F [Example 4a] tested on Vps34 (Homo sapiens, UniProt Q8NEB9); state its IC50.
Key: 10 to 100 nM

Exercise: # return IC50 for COC(C)(C)CN1c2nc(N3CCOCC3)cc(=O)n2CC[C@H]1C(F)(F)F [Example 10b] , test system: Vps34 (Homo sapiens, UniProt Q8NEB9)
Key: 10 to 100 nM

Exercise: Lab note: record IC50 of CC(C)OCCN1c2nc(N3CCOCC3)cc(=O)n2CC[C@@]1(C)C(F)(F)F [Example 11Ab] tested on Vps34 (Homo sapiens, UniProt Q8NEB9).
Key: < 10 nM

Exercise: Quote Vps34 (Homo sapiens, UniProt Q8NEB9) IC50 for entry CC(C)OCCN1c2nc(N3CCOCC3)c(F)c(=O)n2CC[C@H]1C(F)(F)F [Example 7b] .
Key: < 10 nM

----------
Reported values: IC50 for Vps34 (Homo sapiens, UniProt Q8NEB9), one per item.

Exercise: Please give measured IC50 of the following entry: COCCN1CC(C)(C)Cn2c1nc(N1CCOCC1)cc2=O [Example 14b]
Key: > 100 nM

Exercise: Please supply the value of reported IC50 for the item CCC(CC)CN1c2nc(N3CCOCC3)cc(=O)n2CC[C@H]1C(F)(F)F [Example 1b]
Key: < 10 nM

Next item in the queue.
Exercise: Determine its reported IC50: CC(C)OCCN1CC(C)(C)Cn2c1nc(N1CCOCC1)cc2=O [Example 15b]
Key: > 100 nM

----------
Listed next: entries and their corresponding melting point.
Give just the number in °C; leave the unit off.

Here is how some molecules turned out for melting point.
Exercise: State, in one line, measured melting point of O=c1cc(N2CCOCC2)nc2n1CC[C@@H](C(F)(F)F)N2CCO
Key: 117

Exercise: Supply melting point value. Item: CS(=O)(=O)CCN1c2nc(N3CCOCC3)cc(=O)n2CC[C@H]1C(F)(F)F [Example 17b]
Key: 96

Exercise: Give reported melting point value for CC(C)(O)CN1c2nc(N3CCOCC3)cc(=O)n2C[C@@]1(C)C(F)(F)F
Key: 72

Exercise: Give the measured melting point for O=c1cc(N2CCOCC2)nc2n1CC[C@@H](C(F)(F)F)N2CCOCC(F)(F)F
Key: 107.8

Exercise: Output measured melting point for this item: Cc1c(N2CCOCC2)nc2n(c1=O)CC[C@@H](C(F)(F)F)N2CC(C)(C)O
Key: 170

Exercise: Annotate the molecule CC(C)OCCN1c2nc(N3CCOCC3)c(F)c(=O)n2CC[C@H]1C(F)(F)F with its measured melting point.
Key: 117

Exercise: Output measured melting point for this item: COC(C)(C)CN1c2nc(N3CCOCC3)cc(=O)n2CC[C@H]1C(F)(F)F [Example 10b]
Key: 172

Please look at the following molecule next.
Exercise: Please look at this molecule and report its melting point: CC(C)OCCN1c2nc(N3CCOCC3)cc(=O)n2C[C@@]1(C)C(F)(F)F
Key: 88

----------
Target: Vps34 (Homo sapiens)
Construct: purchased Invitrogen PV5126
Assay: Phosphorylation of phosphatidylinositol (PI) with Vps34 in vitro, ADP detected by TR-FRET (HTRF Transcreener ADP kit)
Assay type: biochemical
Conditions: 10 μM ATP, 55 μg/mL PI, about 3 nM of Vps34, 1 hour at room temperature; absolute CI50, average of 2 independent experiments; read-out: VPS34 CI 50
pIC50: −log10 of the molar value.
Listing of recorded pIC50 by entry.

Would you please look over these solved cases?
Exercise: Report the value of pIC50 obtained on Vps34 (Homo sapiens) for CC(C)OCCN1c2nc(N3CCOCC3)cc(=O)n2CC12CCCC2 .
Key: 7.00 to 8.00

Exercise: State measured pIC50 of the compound CCC(CC)CN1c2nc(N3CCOCC3)cc(=O)n2C[C@@]1(C)C(F)(F)F with Vps34 (Homo sapiens).
Key: > 8.00

Exercise: Specify the recorded pIC50 for CC(C)OCCN1CC2(CC2)Cn2c1nc(N1CCOCC1)cc2=O [Example 16b] , system: Vps34 (Homo sapiens).
Key: 7.00 to 8.00

New cases:
Exercise: Answer with pIC50 of CS(=O)(=O)CCN1c2nc(N3CCOCC3)cc(=O)n2CC[C@H]1C(F)(F)F [Example 17b] measured for Vps34 (Homo sapiens).
Key: > 8.00

Exercise: Report measured pIC50 on Vps34 (Homo sapiens); entry: COCCN1c2nc(N3CCOCC3)cc(=O)n2CCC1(C)C [Example 12b]
Key: 7.00 to 8.00

Exercise: Report value only: pIC50, Vps34 (Homo sapiens), Cc1c(N2CCOCC2)nc2n(c1=O)CC[C@@H](C(F)(F)F)N2CC(C)(C)O
Key: < 7.00
